// data source = patent US20050090451A1

assay: in vitro; settings: human, Caco-2, Mannitol Permeability with Vehicle
recorded_metric: Papp A→B at 5 min (×10⁻⁶ cm/s)
Lab book: enter the figure in ×10⁻⁶ cm/s, no units written.

Query: Would you mind telling me what Papp A→B at 5 min value was observed for OC[C@@H](O)[C@@H](O)[C@H](O)[C@H](O)CO ?
Response: 0.916
